Taken from PubChem BioAssay (EPA / NIEHS).

# EXPERIMENTAL DETAILS: ATG_VDRE_CIS: Attagene CIS-FACTORIAL HepG2 Assay for human Vitamin D Receptor Element (VDRE) (AID 2282968)
# TEST CONTEXT: HepG2 VDRE cis-reporter transcription, actives raise or lower the signal
The source made the active and inactive calls. The calls were made as follows: active = hit-call score of the fitted dose curve at least 0.9, where 1 is the maximum; inactive = score below 0.9.
PROPERTY NAME: outcome

CCN(CCO)S(=O)(=O)C(F)(F)C(F)(F)C(F)(F)C(F)(F)C(F)(F)C(F)(F)C(F)(F)C(F)(F)F; inactive
O=C(Cl)c1ccc(Cl)cc1Cl; inactive
COc1ccccc1C=O; inactive
C=C(C)C(=O)OCC(F)(F)C(F)(F)C(F)(F)C(F)F; inactive
C=CC(=O)OCCC(F)(F)C(F)(F)C(F)(F)C(F)(F)F; inactive
NC(=O)C(F)(F)C(F)(F)C(F)(F)C(F)F; inactive

Answer with reported outcome of "NCC(F)(F)C(F)(F)C(F)(F)C(F)(F)C(F)(F)C(F)(F)C(F)(F)C(F)(F)F" inactive

Give outcome for the following compound: "c1ccc(C[P+](c2ccccc2)(c2ccccc2)c2ccccc2)cc1" inactive

Complete the entry with outcome for "NC(=O)C(F)(F)C(F)(F)C(F)(F)F" inactive
